Tested on: NUCG-4
Assay: Assay II of bioactive molecules on cell viability in vitro (CCK8)
Assay type: cell-based
Details: CCK8, 3-4 days
Each record here notes measured EC50.
Express the result in nM but write the number alone.

A selection of reference data follows.
CC[C@@]1(O)C(=O)OCc2c1cc1n(c2=O)Cc2c-1nc1cc3c(cc1c2CCCOCNC(=O)CN)OCO3
185
CC[C@@]1(O)C(=O)OCc2c1cc1n(c2=O)Cc2c-1nc1cc(F)c(C)c3c1c2[C@@H](NC(=O)CO)CC3 [DXD, DXd, reference compound]
43.3

Form field EC50, entry "CC[C@@]1(O)C(=O)OCc2c1cc1n(c2=O)Cc2c-1nc1cc3c(cc1c2CCCO)OCO3" : 8.73
